system: DU-145 prostate; experiment: NCI tumour cell line growth inhibition, 48 h
Hi there, I'd appreciate the recorded TGI for every entry that follows.
Note: unit µM is implicit; provide only the numeric part.

## Task Given the entry Cc1ccc(-c2nc([P+](c3ccccc3)(c3ccccc3)c3ccccc3)c(Nc3ccccc3)o2)cc1 , report its measured TGI.
## Result 2.48

## Task May I ask what TGI has been recorded for O=[N+]([O-])/C(C(Cl)=C(Cl)Cl)=C(\N1CCCCC1)n1nnc2ccccc21 ?
## Result 37.7

## Task Reported TGI, compound O=C(NCCNc1nccc(-c2c(-c3cccc(O)c3)nc3sccn23)n1)c1ccccc1 : ____
## Result 68.7

## Task Which TGI value is on record for CC(C)(C)C1=CC(=C2C=Cc3ccccc3O2)C=C(C(C)(C)C)C1=O ?
## Result 20.8

## Task Can you look up the measured TGI of COC(=O)/C=C\C(C#N)(C#N)N=Cc1sccc1C for me?
## Result 13.4

## Task Given O=C1c2ccccc2C(=O)c2sc(Nc3ccccc3Cl)nc21 , state its recorded TGI.
## Result 31.4

## Task Record request: TGI value, item Cc1ccc(NCCN(C)C)c2c(=O)c3ccccc3sc12
## Result 4.63

###

test system: SNB-19 CNS; assay: NCI tumour cell line growth inhibition, 48 h
Value Kind: TGI (µM)
Number only, in µM; omit the unit.

## Task Param readout = TGI; param system = SNB-19 CNS; param query = CCN(CC)CCCNc1[nH]ncc2c(C)c3nc4ccc(OC)cc4c3cc12 ; response: value
## Result 1.21

## Task Item Cc1ccc(O)c(C2=CC(c3cccc(Br)c3)SC(N)=N2)c1 (stereo not given) with SNB-19 CNS - TGI?
## Result 32.4

###

tested on: SW-620 colon; experiment: NCI tumour cell line growth inhibition, 48 h; in the data active means GI50 below about 0.43 µM; inactive means the rest
Hi! Could you answer with just one of these? yes for active, no for inactive

## Task Please indicate how the test categorized CC1=C[C@H]2C[C@H](C)[C@H]3CC[C@H](C)[C@]4(C1)C(=O)C(O)=C(C)C(=O)[C@@]324 .
## Result no

## Task Can you look up the reported call for COc1cc(NCCN=C(N)NC(N)=NC(C)C)c2ncccc2c1 for me?
## Result no

## Task Test call for this compound, please: COc1cc2c(=O)n(CCN(C)C)c3c4cc5c(cc4ccc3c2cc1OC)OCO5
## Result yes

## Task Record request — test call for Cc1ccc(-c2nc(-c3cn(C)c4ncccc34)cs2)cc1
## Result no

## Task Tell me the recorded outcome of this test for O=c1cc(-c2ccccc2)oc2cc(OC/C(=N/O)c3ccc(F)cc3)ccc12 .
## Result no

###

Kindly state TGI for each of the entries shown.
test system: SF-268 CNS; experiment: NCI tumour cell line growth inhibition, 48 h

## Task So what does the record say about TGI for C=CCOc1ccccc1C1(O)c2ccccc2C2=NCCCN21 (stereo not given) ?
## Result > 100 µM

## Task Given the compound O=C(Nc1cc(Oc2cc(F)c(NC(=O)C3(C(=O)Nc4ccc(F)cc4)CC3)cc2F)ccn1)C1CC1 , what is its reported TGI?
## Result > 28.5 µM

## Task Bench note: what TGI did CC1(C)OC[C@@H](O)[C@H](Br)CO1 show?
## Result > 100 µM

## Task What does the data say about its TGI? Entry: C#CC1(O)CCC2[C@@H]3CCc4cc(Oc5nc(F)nc(-c6c7ccccc7cn6C)n5)ccc4C3CC[C@@]21C (stereo not given in full)
## Result > 100 µM

## Task Return reported TGI; argument: Cn1c(=O)c2[nH]cnc2n(CC(N)=O)c1=O
## Result > 100 µM
